# assayed-system: GPIIb/IIIa (Homo sapiens, UniProt P05106+P08514)
# Construct: Purification of GPIIb/IIIa from HEL cells; endogenous in cells; host or cells: HEL cells (HEL 92.1.7, ATCC TIB180); endogenous complex solubilized with Triton X-100 and purified in house
# Sequence (P08514 32-887 limits assumed): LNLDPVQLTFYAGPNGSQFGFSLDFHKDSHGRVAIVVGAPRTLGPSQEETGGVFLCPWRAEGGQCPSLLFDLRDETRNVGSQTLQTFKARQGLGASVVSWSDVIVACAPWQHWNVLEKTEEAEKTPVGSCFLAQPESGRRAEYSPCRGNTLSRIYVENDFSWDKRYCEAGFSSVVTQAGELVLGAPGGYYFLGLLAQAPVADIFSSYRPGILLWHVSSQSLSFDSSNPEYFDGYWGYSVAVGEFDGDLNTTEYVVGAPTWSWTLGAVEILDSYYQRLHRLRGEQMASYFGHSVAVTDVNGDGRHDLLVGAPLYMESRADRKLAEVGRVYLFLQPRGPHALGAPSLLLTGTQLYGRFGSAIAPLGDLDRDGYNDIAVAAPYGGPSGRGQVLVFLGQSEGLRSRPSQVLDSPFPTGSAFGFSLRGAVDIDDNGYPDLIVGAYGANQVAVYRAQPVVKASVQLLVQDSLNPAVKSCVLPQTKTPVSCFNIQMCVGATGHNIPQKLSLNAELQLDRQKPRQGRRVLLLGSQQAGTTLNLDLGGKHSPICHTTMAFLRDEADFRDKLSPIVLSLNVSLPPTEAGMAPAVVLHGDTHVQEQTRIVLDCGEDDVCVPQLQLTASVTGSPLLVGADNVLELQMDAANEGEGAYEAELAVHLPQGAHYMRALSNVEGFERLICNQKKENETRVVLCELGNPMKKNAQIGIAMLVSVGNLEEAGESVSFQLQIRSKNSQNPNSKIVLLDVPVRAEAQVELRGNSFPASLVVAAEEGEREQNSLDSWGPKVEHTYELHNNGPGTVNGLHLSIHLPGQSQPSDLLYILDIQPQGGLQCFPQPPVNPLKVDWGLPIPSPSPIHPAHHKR
# Sequence (P08514 891-1039 limits assumed): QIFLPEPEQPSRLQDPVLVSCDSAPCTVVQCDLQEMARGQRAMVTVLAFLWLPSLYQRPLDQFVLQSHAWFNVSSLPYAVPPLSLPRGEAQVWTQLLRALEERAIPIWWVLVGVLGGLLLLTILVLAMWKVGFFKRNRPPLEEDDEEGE
# Sequence (P05106 27-788): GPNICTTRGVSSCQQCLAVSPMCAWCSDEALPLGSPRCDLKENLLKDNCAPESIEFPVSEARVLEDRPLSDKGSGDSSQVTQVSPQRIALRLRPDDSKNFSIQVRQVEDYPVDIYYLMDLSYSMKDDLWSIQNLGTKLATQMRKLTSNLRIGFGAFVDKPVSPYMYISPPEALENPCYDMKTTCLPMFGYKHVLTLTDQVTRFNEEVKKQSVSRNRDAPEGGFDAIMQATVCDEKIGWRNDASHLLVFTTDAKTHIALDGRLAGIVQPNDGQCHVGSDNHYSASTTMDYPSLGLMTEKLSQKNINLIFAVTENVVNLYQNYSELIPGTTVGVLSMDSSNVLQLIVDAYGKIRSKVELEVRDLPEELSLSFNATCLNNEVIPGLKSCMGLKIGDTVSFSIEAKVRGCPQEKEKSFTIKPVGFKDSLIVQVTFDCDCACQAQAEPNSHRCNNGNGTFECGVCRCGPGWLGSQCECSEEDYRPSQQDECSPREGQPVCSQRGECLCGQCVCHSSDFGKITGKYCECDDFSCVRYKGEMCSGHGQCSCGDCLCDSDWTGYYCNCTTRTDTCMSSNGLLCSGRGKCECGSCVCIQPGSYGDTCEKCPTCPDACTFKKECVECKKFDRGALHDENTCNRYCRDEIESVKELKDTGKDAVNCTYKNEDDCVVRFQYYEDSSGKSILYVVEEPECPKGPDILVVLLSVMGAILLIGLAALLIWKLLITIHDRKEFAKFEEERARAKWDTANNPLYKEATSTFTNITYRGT
# assay-remarks: Inhibitory activity against binding of GPIIb/IIIa and fibrinogen
# conditions: Table 2; 10^-5 M; read-out: GPIIb/IIIa Fibrinogen Binding Inhibitory Activity
Each item that follows carries a reported inhibition at 10 µM.
property: inhibition at 10 µM (%)

{"columns": ["compound", "recorded-value"],
 "data": [
  ["C=CCN(CC=C)c1c(F)cc2c(=O)c(C(=O)O)cn(C3CC3)c2c1F", 52.1],
  ["O=C(O)c1cn(Cc2ccc(Cl)cc2)c2c(F)c(N3CCNCC3)c(F)cc2c1=O", 58.5],
  ["CN1CCN(C(=O)OC2CCN(c3c(F)cc4c(=O)c(C(=O)O)cn(C5CC5)c4c3F)C2)CC1 (stereo not drawn)", 94.1],
  ["CCn1cc(C(=O)O)c(=O)c2cc(F)c(N3CCN(c4ccncc4)CC3)cc21", 82.2],
  ["O=C(O)c1cn(Cc2nccs2)c2c(F)c(N3CCCNCC3)c(F)cc2c1=O", 100],
  ["Cn1cc(C(=O)O)c(=O)c2cc(F)c(N3Cc4ccccc4C(N)C3)c(F)c21 (stereo not drawn)", 72.4]
]}

* * *

# assayed-system: GPIIb/IIIa (Homo sapiens, UniProt P05106+P08514)
# Construct: Purification of GPIIb/IIIa from HEL cells; endogenous in cells; host or cells: HEL cells (HEL 92.1.7, ATCC TIB180); endogenous complex solubilized with Triton X-100 and purified in house
# assay-remarks: Inhibitory activity against binding of GPIIb/IIIa and fibrinogen
# conditions: Table 2; 10^-5 M; read-out: GPIIb/IIIa Fibrinogen Binding Inhibitory Activity
property: inhibition at 10 µM (%)

{"columns": ["compound-structure", "recorded-value"],
 "data": [
  ["O=C(O)c1cn2c3c(c(N4CCn5ccnc5C4)c(F)cc3c1=O)OCC2", 90.8],
  ["NC(=O)CCCNc1c(F)cc2c(=O)c(C(=O)O)cn(C3CC3)c2c1F", 58.8],
  ["CN1CCN(c2c(F)cc3c(=O)c(C(=O)O)cn(CCF)c3c2F)CC1", 91],
  ["CN1CCN(c2c(F)cc3c(=O)c(C(=O)O)cn4c3c2N(C)CC4)CC1", 89.5]
]}

* * *

Each item that follows carries a reported inhibition at 10 µM.
# assayed-system: GPIIb/IIIa (Homo sapiens, UniProt P05106+P08514)
# Construct: Purification of GPIIb/IIIa from HEL cells; endogenous in cells; host or cells: HEL cells (HEL 92.1.7, ATCC TIB180); endogenous complex solubilized with Triton X-100 and purified in house
# assay-remarks: Inhibitory activity against binding of GPIIb/IIIa and fibrinogen
# conditions: Table 2; 10^-5 M; read-out: GPIIb/IIIa Fibrinogen Binding Inhibitory Activity
Where a name gives a salt, the structure may show the parent alone.

{"columns": ["compound", "assayed-system", "inhibition at 10 µM, %"],
 "data": [
  ["O=C(O)c1cn(Cc2cscn2)c2c(F)c(N3CCN(c4ccncc4)CC3)c(F)cc2c1=O [Compound 73]", "GPIIb/IIIa (Homo sapiens, UniProt P05106+P08514)", 100],
  ["CN1CCN(c2c(F)cc3c(=O)c(C(=O)O)cn(Cc4nccs4)c3c2F)CC1 [Compound 50, hydrochloride]", "GPIIb/IIIa (Homo sapiens, UniProt P05106+P08514)", 99.8],
  ["O=C(O)c1cn(CCF)c2c(F)c(N3CCn4ccnc4C3)c(F)cc2c1=O [Compound 9]", "GPIIb/IIIa (Homo sapiens, UniProt P05106+P08514)", 69.5],
  ["Nc1c(F)c(N2CCN3CCC[C@@H]3C2)c(F)c2c1c(=O)c(C(=O)O)cn2C1CC1 [Compound 44]", "GPIIb/IIIa (Homo sapiens, UniProt P05106+P08514)", 61.6],
  ["NC(=O)OCCn1cc(C(=O)O)c(=O)c2cc(F)c(N3CCNCC3)c(F)c21 [Compound 11]", "GPIIb/IIIa (Homo sapiens, UniProt P05106+P08514)", 96.8],
  ["CC(=O)NCCN1CCN(c2c(F)cc3c(=O)c(C(=O)O)cn(Cc4nccs4)c3c2F)CC1 [Compound 69]", "GPIIb/IIIa (Homo sapiens, UniProt P05106+P08514)", 100],
  ["O=C(O)c1cn(C2CC2)c2c(F)c(N3CCc4ccccc4C3)c(F)cc2c1=O [Compound 34]", "GPIIb/IIIa (Homo sapiens, UniProt P05106+P08514)", 77],
  ["CN1CCN(c2c(F)cc3c(=O)c(C(=O)O)cn(C)c3c2F)CC1 [Compound 1]", "GPIIb/IIIa (Homo sapiens, UniProt P05106+P08514)", 70.7],
  ["CN(C)CCn1cc(C(=O)O)c(=O)c2cc(F)c(N3CCNCC3)cc21 [Compound 12]", "GPIIb/IIIa (Homo sapiens, UniProt P05106+P08514)", 79.1]
]}

Values compiled from patent US5519024A.
